Every entry's value here was drawn from patent US12723105.

molecular target: T1, Human PD-L1 antigen (human, UniProt Q9NZQ7 19-238); assay: BLI (Octet), His-tagged VHH on anti-penta-His tips, soluble human PD-L1
T1 construct: also called PD-L1 protein
T1 sequence (Q9NZQ7 19-238 limits assumed): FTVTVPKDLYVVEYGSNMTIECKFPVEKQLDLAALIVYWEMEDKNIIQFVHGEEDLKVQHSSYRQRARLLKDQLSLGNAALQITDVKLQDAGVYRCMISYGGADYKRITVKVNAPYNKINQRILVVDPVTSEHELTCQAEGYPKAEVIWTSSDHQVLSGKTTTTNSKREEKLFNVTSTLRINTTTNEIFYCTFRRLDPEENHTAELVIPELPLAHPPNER
TEST READOUT: kon (M⁻¹ s⁻¹)

BINDER	RESULT UNITS	kon
PL11 (VHH, not shown: C-terminal His-tag) VHH: QVQLVESGGGLVQAGGSLRLSCAASGRTFNTYDMGWFRRAPGKEREFVAGIDWYTTNTYYADSVKGRFTISRDNAKNTVYLQMRSLKPEDTAVYYCAAGIRSTATITGQADYWGQGAQVTVSS	M⁻¹ s⁻¹	27500
PL2 (VHH, not shown: C-terminal His-tag) VHH: QVQLVESGGGLVQAGGSLRLSCAVSGLTLSRYTMAWFRQAPGKEREFVAAIIRNSVSTFHEESVKGRFTISRDNVKNMMYLQMNTLKPEDTAVYYCATNVGPTGGFSLQSVQRYDAWGQGTQVTVSS	M⁻¹ s⁻¹	33300
